# Tested on: T. brucei
# ASSAY: Growth inhibition assay of T. brucei cell cultures (Alamar Blue, 48 h)
# Format: cell-based
# EXPERIMENTAL PARAMETERS: Trypanosoma brucei; read-out: B) T. brucei EC50
Binary label based on EC50 with cut-off 3000 nM: below gives Criterion met, not below gives Criterion not met.

>>> print(df.to_string())
                                   molecule     discrete_label
0  O=C(NCc1nc2ccc(F)nc2[nH]1)OCCc1ccc(Cl)cc1Cl      Criterion met
1  Nc1nc(Cl)ccc1NC(=O)C1CN(C(=O)Cc2cc(Cl)cc(Cl)c2)CCN1 (centres unmarked)  Criterion not met
2  Fc1ccc2[nH]c(C3CCCC(NCc4cc(Cl)cc(Cl)c4)C3)nc2c1 (centres unmarked)      Criterion met
3  O=C(Cc1cc2cc(Cl)cc(Cl)c2o1)NCc1nc2ccccc2[nH]1  Criterion not met
4  CC(=O)N(Cc1cc(Cl)cc(Cl)c1)[C@H]1CCCN(c2nc3nc(F)ccc3[nH]2)C1  Criterion not met
5  CC(=O)N(Cc1cc(Cl)cc(Cl)c1)C1CCCC(c2nc3cc(Cl)ccc3[nH]2)C1 (centres unmarked)  Criterion not met
6  O=C1N[C@@H](Cc2ccc(Cl)cc2Cl)C(O)N1Cc1nc2ccccc2[nH]1 (some centres unmarked)      Criterion met
7  CN(CCNCc1cc(Cl)cc(Cl)c1)c1nc2nc(Cl)c(Br)cc2[nH]1      Criterion met
